// provenance: patent US10273267B2

Listed next: entries and their corresponding hNE/hPr3 selectivity.
# assay target: human proteinase 3 (Homo sapiens, UniProt P24158)
# Construct: purchased Elastin Products Company, USA
# Sequence (P24158 28-248): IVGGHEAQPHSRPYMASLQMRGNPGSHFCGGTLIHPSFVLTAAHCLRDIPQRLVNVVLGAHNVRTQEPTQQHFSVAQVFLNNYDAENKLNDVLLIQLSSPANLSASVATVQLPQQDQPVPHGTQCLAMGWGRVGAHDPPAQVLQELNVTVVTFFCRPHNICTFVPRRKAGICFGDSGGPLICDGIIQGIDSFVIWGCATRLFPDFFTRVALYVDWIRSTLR
# test details: Inhibition of human proteinase 3 (substrate Boc-Ala-Ala-Nva-SBzl)
# Format: biochemical
# condition label: ratio of hPr3 IC50 to hNE IC50
Where a SMILES comes first, the peptide text is derived from it. [ ]: non-standard residue; d: D form. Gly(octyl) = CCCCCCCC[C@H](N)C(=O)O; aThr = C[C@H](O)[C@H](N)C(=O)O; Nlys = NCCCCNCC(=O)O
measured metric: hNE/hPr3 selectivity

1) CCCCCCCC[C@@H]1NC(=O)[C@@H]2CCCN2C(=O)[C@H]2CCCN2C(=O)[C@H]([C@H](C)O)NC(=O)[C@H](CCCCN)NC(=O)[C@H](CCC(N)=O)NC(=O)[C@@H]2CCCN2C(=O)[C@@H]2CCCN2C(=O)[C@H]([C@@H](C)CC)NC(=O)[C@H](CO)NC(=O)[C@H](C)NC(=O)[C@H]([C@@H](C)O)NC(=O)[C@H](CCC(=O)O)NC1=O [Example 3] (cyclo([Gly(octyl)]ETASIPPQK[aThr][dP]P))
149
2) CCCCCCCC[C@@H]1NC(=O)[C@@H]2CCCN2C(=O)[C@H]2CCCN2C(=O)[C@H]([C@@H](C)O)NC(=O)[C@H](CCCCN)NC(=O)[C@H](CCC(N)=O)NC(=O)[C@@H]2CCCN2C(=O)CN(CCCCN)C(=O)[C@H]([C@@H](C)CC)NC(=O)[C@H](CO)NC(=O)[C@H](C)NC(=O)[C@H]([C@@H](C)O)NC(=O)[C@H](CCC(=O)O)NC1=O [Example 33] (cyclo([Gly(octyl)]ETASI[Nlys]PQKT[dP]P))
871

###

These records show IC50 for porcine pancreatic elastase (Sus scrofa).
Where a SMILES comes first, the peptide text is derived from it. [ ]: non-standard residue; d: D form. Gly(octyl) = CCCCCCCC[C@H](N)C(=O)O; Pip = O=C(O)[C@@H]1CCCCN1
measured metric: IC50

1. CCCCCCCC[C@@H]1NC(=O)[C@H](Cc2ccc(O)cc2)NC(=O)[C@@H](Cc2ccc(O)cc2)NC(=O)[C@H]([C@@H](C)O)NC(=O)[C@H](CCCCN)NC(=O)[C@H](CCC(N)=O)NC(=O)[C@@H]2CCCN2C(=O)[C@@H]2CCCN2C(=O)[C@H]([C@@H](C)CC)NC(=O)[C@H](CO)NC(=O)[C@H](C)NC(=O)[C@H]([C@@H](C)O)NC(=O)[C@H](CCC(=O)O)NC1=O [Example 24] (cyclo([Gly(octyl)]ETASIPPQKT[dY]Y))
12.9 µM
2. CCCCCCCC[C@@H]1NC(=O)[C@@H]2CCCN2C(=O)[C@H]2CCCN2C(=O)[C@H]([C@@H](C)O)NC(=O)[C@H](CCCCN)NC(=O)[C@H](CCC(N)=O)NC(=O)[C@@H]2CCCCN2C(=O)[C@@H]2CCCN2C(=O)[C@H]([C@@H](C)CC)NC(=O)[C@H](CO)NC(=O)[C@H](C)NC(=O)[C@H]([C@@H](C)O)NC(=O)[C@H](CCC(=O)O)NC1=O [Example 45] (cyclo([Gly(octyl)]ETASIP[Pip]QKT[dP]P))
2.3 µM
3. CCCCCCCC[C@@H]1NC(=O)[C@H](C(C)C)NC(=O)[C@@H](CCCCN)NC(=O)[C@H]([C@@H](C)O)NC(=O)[C@H](CCCCN)NC(=O)[C@H](CCC(N)=O)NC(=O)[C@@H]2CCCN2C(=O)[C@@H]2CCCN2C(=O)[C@H]([C@@H](C)CC)NC(=O)[C@H](CO)NC(=O)[C@H](C)NC(=O)[C@H]([C@@H](C)O)NC(=O)[C@H](CCC(=O)O)NC1=O [Example 26] (cyclo([Gly(octyl)]ETASIPPQKT[dK]V))
46.8 µM
